# System: PC-3 prostate
# method: NCI-60 one-dose screen, 48 h (100 = growth as untreated, 0 = no growth, -100 = all killed)
# assay-conditions: 10 µM
About 83,000 compounds went through this panel and 20% of them were active in at least one assay; those are over-represented in the sample as a whole.
property-measured: growth (%)
Answer with a number only, understood to be in %.

Consider the reported growth for these compounds:
response.value for Cc1cc2nc(CC(=O)c3cccc([N+](=O)[O-])c3)c(=O)[nH]c2cc1C (field: growth) = 68

Please fill in: growth reported for CC1(c2ccccc2)NC(=O)NC1=O (configuration not stated) = 98.6

Data point: CC1(C(=O)O)NC(C(=O)O)Cc2c1[nH]c1ccccc21 (configuration not stated) ; growth = 87.4

Continuing:
Record c1cc2cccc3c4cccc5cccc(c(c1)c23)c54 . Reported growth: 93.5

---

# Tested on: UACC-257 melanoma
# method: NCI-60 one-dose screen, 48 h (100 = growth as untreated, 0 = no growth, -100 = all killed)
# assay-conditions: 10 µM
About 83,000 compounds went through this panel and 20% of them were active in at least one assay; those are over-represented in the sample as a whole.
property-measured: growth (%)
The figure you give is taken to be in %; do not add the unit.

Bench note, UACC-257 melanoma: entry Cc1cc(N)ccc1-c1ccc(N)cc1C , its growth = 80.7

So the reported growth for CCn1c(=O)n(C)c2c(=O)n(C)c(=O)n(C)c21 , on UACC-257 melanoma, turned out to be 99

---

# Test system: SF-295 CNS
# method: NCI-60 one-dose screen, 48 h (100 = growth as untreated, 0 = no growth, -100 = all killed)
# assay-conditions: 10 µM
# Description: Cells are grown in 96 well plates and exposed to the test compound for 48 hours. Compounds are tested at a single concentration, which is 10^-5 M for most compounds. The reported endpoint is percent growth (GI% or GIPRCNT), where numbers from 0 - 100% represent growth inhibition, and numbers from -100% - 0 represent cell death. For example, a value of 40 represents 60% growth inhibition. A value of 0 means no net growth occurred over the course of the experiment. […]
This is part of a sample that, as a whole, favours compounds with a hit. Of some 83,000 tested, about 20% had one in any assay.
property-measured: growth (%)
Give a bare numeral; the unit % is implied.

The following compounds have reported results that may help.
growth in this record for CCS(=O)(=O)CCCl : 102

Measured growth of C/C(=N\NC(=O)c1ccccc1N)c1ccccc1O : 12.8

Lab book: growth of C=CCOC(=O)C(=O)OCC=C noted as 154

Query CN(C)c1ccc(C(c2ccc(O)cc2)c2ccc(N(C)C)cc2)cc1 yields growth of 103

compound COC(=O)c1ccc(C(C)C)cc1 , growth observed: 100

New cases:
Measured growth, C[C@]12CC[C@@H]3c4ccc(OCC(=O)O)cc4CC[C@H]3[C@@H]1CCC2=O : 111

The recorded growth for entry CC(=O)c1c[nH]c2ccccc12 equals 100

# growth of S=c1nn[nH]c2ccccc12 = 113

# growth (compound: C=CCc1cc(C(C)=O)cc(OC)c1O ) is 119

The compound O=C1Cc2ccccc2C(=O)O1 showed growth equal to 107

growth reading for NC(C(=O)O)c1ccc([N+](=O)[O-])cc1 (configuration not stated) : 104

Hey, just so you know, these numbers are from PubChem BioAssay (NCI).
